target: enriched paired helical filament tau protein (ePHF; sarkosyl insoluble tau) (human, UniProt P10636 2-758); assay: direct ELISA, ePHF coated
Sequence (P10636 other isoform, or with tags, fused parts or gaps limits assumed): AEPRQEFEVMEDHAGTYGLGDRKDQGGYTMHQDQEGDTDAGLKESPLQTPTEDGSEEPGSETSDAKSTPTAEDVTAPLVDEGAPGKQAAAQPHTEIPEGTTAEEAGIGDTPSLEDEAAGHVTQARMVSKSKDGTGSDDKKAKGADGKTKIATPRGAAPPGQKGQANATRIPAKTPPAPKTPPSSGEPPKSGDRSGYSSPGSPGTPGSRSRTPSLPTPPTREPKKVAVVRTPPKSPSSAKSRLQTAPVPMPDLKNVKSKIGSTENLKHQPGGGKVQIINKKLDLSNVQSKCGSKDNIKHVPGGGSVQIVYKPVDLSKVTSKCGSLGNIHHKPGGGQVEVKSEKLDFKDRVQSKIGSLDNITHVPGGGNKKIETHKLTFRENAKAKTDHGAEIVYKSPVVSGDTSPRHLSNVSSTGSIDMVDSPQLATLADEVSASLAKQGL
Observation Type: EC50
// return the numeric value with its unit appended

VY014 (antibody, V domains shown) VH: EVQLVESGGGLVQPGGSLRLSCAASGFTFNNYDMHWVRQAAGKGLEWVSTIGAAGDTYYPGSVKGRFIISRENAKNSLYLQMNSLRAGDTAVYYCARAGETLEGATIGYYYGMDVWGQGTTVTVSS VL: DILMTQSPLSLPVTPGEPASISCRSSQSLLHSNGYNYLDWYLQKPGQSPQLLIYLGSNRASGVPDRFSGSGSGTDFTLKFSRVEAEDVGLYYCMQALQIPLTFGGGTKVEIK
6.23 nM
VY009 (antibody, V domains shown) VH: QITLKESGPTLVKPTQTLTLTCTLSGFSLSTSEVGVGWIRQPPGKALEWLAIIYWNDHKRYSPSLKNRLTFTKDTSKNQVVLTMTNMDPVDTATYYCARRVTGEGFDPWGQGTLVTVSS VL: SYELTQPPSVSVSPGQTARITCSGDALPKQYAYWYQQKPGQAPVLVIFKDTERPSGIPERFSGSSSGTTVTLTISGVQAEDEADYYCQSADSSGSYVFGTGTKVTVL
1.74 nM

Input: For the binder VY004 (antibody, V domains shown) VH: EVQLVESGGGLVQAGGSLRLSCAASGFTFSDYSMNWVRQAPGKGLEWVSYIRSSSSIIYYADSVKGRFTISRDNAKNSLHLQMNSLRDEDTAVYYCARRGHFDYWGQGTLVTVSS VL: EIVLTQSPATLSLSPGERATLSCRASQSVSDYLAWYQQKPGQAPRLFIYDVSKRATGIPARFSGSGSGTDFTLTISSLEPEDFAVYYCQQRSNWPLTFGGGTKVEIK , report EC50.
Output: 0.07 nM
